Each record here notes measured ΔTm.
testedTarget: Peregrin (Homo sapiens) (UniProt P55201)
Sequence (P55201 whole entry): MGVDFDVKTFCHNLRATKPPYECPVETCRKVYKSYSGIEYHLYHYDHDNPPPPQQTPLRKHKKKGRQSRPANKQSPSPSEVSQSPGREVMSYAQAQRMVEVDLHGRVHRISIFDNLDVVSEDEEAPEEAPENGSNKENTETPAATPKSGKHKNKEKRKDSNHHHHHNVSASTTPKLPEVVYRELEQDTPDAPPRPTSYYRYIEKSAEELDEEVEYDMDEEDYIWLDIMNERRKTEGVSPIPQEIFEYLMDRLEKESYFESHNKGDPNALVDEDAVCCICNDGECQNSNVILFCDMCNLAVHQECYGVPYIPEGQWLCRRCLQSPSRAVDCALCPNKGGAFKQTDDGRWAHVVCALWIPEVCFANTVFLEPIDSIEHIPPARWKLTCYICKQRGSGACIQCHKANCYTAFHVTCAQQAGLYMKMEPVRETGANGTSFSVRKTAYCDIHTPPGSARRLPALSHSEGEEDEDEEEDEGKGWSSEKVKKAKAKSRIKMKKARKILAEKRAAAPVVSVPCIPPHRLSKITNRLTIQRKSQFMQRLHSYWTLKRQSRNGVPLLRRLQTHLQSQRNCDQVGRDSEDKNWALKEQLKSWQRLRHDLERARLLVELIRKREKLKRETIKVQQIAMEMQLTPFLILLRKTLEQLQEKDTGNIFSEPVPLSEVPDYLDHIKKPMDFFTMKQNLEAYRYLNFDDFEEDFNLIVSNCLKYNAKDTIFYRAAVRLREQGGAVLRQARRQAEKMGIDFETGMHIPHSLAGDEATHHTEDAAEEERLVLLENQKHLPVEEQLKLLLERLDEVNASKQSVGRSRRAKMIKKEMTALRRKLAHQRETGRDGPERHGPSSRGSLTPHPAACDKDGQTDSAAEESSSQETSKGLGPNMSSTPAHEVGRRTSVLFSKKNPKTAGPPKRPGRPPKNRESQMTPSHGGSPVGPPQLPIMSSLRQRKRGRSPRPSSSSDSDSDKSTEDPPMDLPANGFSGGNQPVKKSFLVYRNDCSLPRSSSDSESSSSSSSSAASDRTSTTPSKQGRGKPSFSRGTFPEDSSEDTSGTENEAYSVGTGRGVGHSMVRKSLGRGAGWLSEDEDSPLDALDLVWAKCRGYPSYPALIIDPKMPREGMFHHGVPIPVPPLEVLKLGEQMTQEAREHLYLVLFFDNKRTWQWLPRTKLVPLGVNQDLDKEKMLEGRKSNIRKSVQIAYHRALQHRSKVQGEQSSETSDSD
conditionSummary: Compound concentration 20.0 uM
A bare number is not enough; add the unit after it.

molecule	result
CC(C)(O)c1ccc(-c2nc3c(F)cc(F)cc3c(=O)[nH]2)cc1	-0.9 °C
COc1cc2c(cc1OC)[C@H]1C[C@@H](O)[C@H](CC(C)C)CN1CC2	0.34 °C
C[C@]12CC[C@@H]3c4ccc(O)cc4C[C@@H](CCCCCCCCC[S+]([O-])CCCC(F)(F)C(F)(F)F)[C@H]3[C@@H]1CC[C@@H]2O (some centres undefined)	0 °C
Cc1nc(-c2cnn(C)c2-c2ccc(C(F)(F)F)cn2)c2c(N3CCC3)ncnn12	0.67 °C
NC(=S)c1cccc(-c2cn(C3CCN(S(=O)(=O)C(F)(F)F)CC3)c3cc(CNC(=O)C4CNC4)ccc23)c1	5.2 °C

I have this molecule here, `COc1cc2c(NC3CCN(C)CC3)cc(-c3ccc(C)o3)nc2cc1OCCCN1CCCC1` , and I need its recorded ΔTm.
-0.96 °C

Given `COCc1nc2cnc3cc(-c4c(C)noc4C)c(OC[C@H]4CCNC4)cc3c2n1[C@H](C)c1ccccc1` , state its recorded ΔTm.
0.65 °C
